- TEST_TARGET: HRgpA-6H (Porphyromonas gingivalis) (UniProt P28784)
- PROTOCOL_TEXT: ELISA, coated HRgpA-6H
Catalogue of binders with associated OD450 nm
Lab note: jot the number down without any unit.

Known results for binders:
{"BINDER": "KB001 mouse Fab VL N54Q (Fab, V domains shown) VH: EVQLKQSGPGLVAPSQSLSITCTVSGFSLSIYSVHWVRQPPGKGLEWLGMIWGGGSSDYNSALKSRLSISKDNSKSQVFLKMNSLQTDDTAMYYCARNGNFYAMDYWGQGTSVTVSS VL: QIVLTQSPAIMSASLGERVTMTCTASSSVSSSFLHWYQQKPGSSPQLWIYSTSQLASGVPARFSGSGSGTSYSLTISSMEAEDAATYYCHQYHHSPYIYTFGGGTKLEIK", "OD450 nm": 0.868}
{"BINDER": "KB001 mouse Fab VL S31D (Fab, V domains shown) VH: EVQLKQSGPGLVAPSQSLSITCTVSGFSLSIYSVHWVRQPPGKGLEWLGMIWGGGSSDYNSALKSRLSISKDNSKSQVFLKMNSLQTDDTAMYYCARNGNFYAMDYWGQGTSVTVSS VL: QIVLTQSPAIMSASLGERVTMTCTASSSVSDSFLHWYQQKPGSSPQLWIYSTSNLASGVPARFSGSGSGTSYSLTISSMEAEDAATYYCHQYHHSPYIYTFGGGTKLEIK", "OD450 nm": 0.762}

Data request: // OD450 nm lookup, key: KB001 mouse Fab VL N54D (Fab, V domains shown) VH: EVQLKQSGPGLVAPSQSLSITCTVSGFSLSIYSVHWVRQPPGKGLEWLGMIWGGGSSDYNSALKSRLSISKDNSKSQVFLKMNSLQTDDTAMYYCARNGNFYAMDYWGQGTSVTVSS VL: QIVLTQSPAIMSASLGERVTMTCTASSSVSSSFLHWYQQKPGSSPQLWIYSTSDLASGVPARFSGSGSGTSYSLTISSMEAEDAATYYCHQYHHSPYIYTFGGGTKLEIK
Data returned: 0.725

Data request: Reported OD450 nm for KB001 mouse Fab VL S30I (Fab, V domains shown) VH: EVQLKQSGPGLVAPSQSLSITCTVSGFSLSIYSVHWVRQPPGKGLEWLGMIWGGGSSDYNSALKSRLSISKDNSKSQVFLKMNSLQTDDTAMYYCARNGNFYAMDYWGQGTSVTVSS VL: QIVLTQSPAIMSASLGERVTMTCTASSSVISSFLHWYQQKPGSSPQLWIYSTSNLASGVPARFSGSGSGTSYSLTISSMEAEDAATYYCHQYHHSPYIYTFGGGTKLEIK : what is it?
Data returned: 0.86

Data request: Value lookup for OD450 nm; key = KB001 mouse Fab VH I31N (Fab, V domains shown) VH: EVQLKQSGPGLVAPSQSLSITCTVSGFSLSNYSVHWVRQPPGKGLEWLGMIWGGGSSDYNSALKSRLSISKDNSKSQVFLKMNSLQTDDTAMYYCARNGNFYAMDYWGQGTSVTVSS VL: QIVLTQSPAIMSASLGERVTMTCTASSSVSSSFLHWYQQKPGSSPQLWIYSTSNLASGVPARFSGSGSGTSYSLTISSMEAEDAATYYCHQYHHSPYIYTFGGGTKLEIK
Data returned: 0.429
